Molecular target: myoc-OLF (Homo sapiens, UniProt Q99972)
Sequence (Q99972 244-503 limits assumed): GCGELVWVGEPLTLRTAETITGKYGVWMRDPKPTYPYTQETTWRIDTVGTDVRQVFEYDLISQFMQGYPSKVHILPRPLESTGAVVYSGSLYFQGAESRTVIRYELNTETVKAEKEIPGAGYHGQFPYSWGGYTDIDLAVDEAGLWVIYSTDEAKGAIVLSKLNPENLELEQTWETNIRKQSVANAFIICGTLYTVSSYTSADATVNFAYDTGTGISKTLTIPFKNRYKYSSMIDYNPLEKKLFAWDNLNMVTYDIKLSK
Experiment: SPR binding to immobilized myoc-OLF
Details: read-out: Kd from SPR; with surfactant P-20 in buffer solution
READOUT NAME: Kd (µM)

| CPD SMILES | OBS VALUE |
| --- | --- |
| CC(C)(C)c1cc(/C=C(\C#N)C(N)=S)cc(C(C)(C)C)c1O | 38.6 |

* * *

Target: myoc-OLF (Homo sapiens, UniProt Q99972)
Sequence (Q99972 244-503 limits assumed): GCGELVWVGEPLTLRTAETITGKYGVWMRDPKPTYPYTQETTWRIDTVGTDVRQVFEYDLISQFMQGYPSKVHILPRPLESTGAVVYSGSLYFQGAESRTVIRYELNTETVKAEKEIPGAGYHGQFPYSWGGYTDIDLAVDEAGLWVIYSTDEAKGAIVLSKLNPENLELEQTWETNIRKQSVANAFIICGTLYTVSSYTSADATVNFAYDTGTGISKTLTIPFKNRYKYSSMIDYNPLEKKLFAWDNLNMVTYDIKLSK
Assay: SPR binding to immobilized myoc-OLF
Details: sensorgram inspection
READOUT NAME: Binding mode by SPR

| COMPOUND | OBS VALUE |
| --- | --- |
| O=C(/C=C/c1ccc(O)cc1)c1ccc(O)cc1O [Isoliquiritigenin] | bind non-specifically |
| O=C(CCc1ccc(O)cc1)c1c(O)cc(O)cc1O [Phloretin] | bind non-specifically |
| O=c1c(O)c(-c2cc(O)c(O)c(O)c2)oc2cc(O)cc(O)c12 [Myricetin] | bind non-specifically |

* * *

target: myoc-OLF (Homo sapiens, UniProt Q99972); experiment: SPR binding to immobilized myoc-OLF; conditions: standard SPR conditions, compounds dissolved in 5% DMSO

| CPD SMILES | EXPERIMENTAL TARGET | Kd from SPR |
| --- | --- | --- |
| O=c1c(O)c(-c2cc(O)c(O)c(O)c2)oc2cc(O)cc(O)c12 | myoc-OLF (Homo sapiens, UniProt Q99972) | linear dose-response |
| O=C(/C=C/c1ccc(O)cc1)c1ccc(O)cc1O | myoc-OLF (Homo sapiens, UniProt Q99972) | linear dose-response |
| O=C(CCc1ccc(O)cc1)c1c(O)cc(O)cc1O | myoc-OLF (Homo sapiens, UniProt Q99972) | linear dose-response |

* * *

test: Solubility in cell media; format: physicochemical; settings: addition to cell media

| MOLECULE | Solubility in cell media |
| --- | --- |
| O=c1cc(-c2ccccc2)oc2c(O)c(O)ccc12 [A1, 7,8-dihydroxyflavone] | adequate solubility |
| O=C1Nc2ccccc2C1=Cc1cc(Br)c(O)c(Br)c1 [G5] | adequate solubility |

FYI, the data here is from paper PMC3944078.
